Provenance of the data: the NIST ThermoML archive (doi:10.1016/j.fluid.2016.02.009)

# mass density per record follows
- test_conditions: 293.15 K; 40000 kPa; Liquid; Vibrating tube method
Report as a plain number; the unit kg/m3 is understood.

Here is how some compounds turned out for mass density.
CCCCOC	780.75
CCCOCCC	782.3
CCOC(C)(C)C	777.97
CC(C)OC(C)C	762.93
CC(C)CCOCCC(C)C	803.86

# query: mass density of entry `CCCCOCC`
783.87

I would be grateful if you could share the reported mass density for `COC(C)(C)C` .
777.85

Could you share which mass density value was measured for `CCCCCOCCCCC` ?
810.53

* * *

- test_conditions: 293.15 K; 55000 kPa; Liquid; Vibrating tube method
experimental_endpoint: mass density (kg/m3)
Kindly answer with a numeric value in kg/m3, unit omitted.

// worked examples, mass density included
CC(C)CCOCCC(C)C	812.71
CCCOCCC	792.44
CCCCOCC	793.86
COC(C)(C)C	788.51
CCOC(C)(C)C	788.63
CCCCCOCCCCC	819.01
CC(C)OC(C)C	774.06

Attention now shifts to the item below.
Give its mass density value. Item: `CCCCOC`
791

* * *

- test_conditions: 308.15 K; 5000 kPa; Liquid; Vibrating tube method
experimental_endpoint: mass density (kg/m3)
# unit: kg/m3 | format: bare number

# count of solved cases: 5
CCOC(C)(C)C [2-ethoxy-2-methylpropane]	731.69
CCCOCCC [dipropyl ether]	738.69
CCCCOCC [butyl ethyl ether]	741.09
CC(C)OC(C)C [diisopropyl ether]	714.61
COC(C)(C)C [2-methoxy-2-methylpropane]	731.19

Request the reported mass density associated with CC(C)CCOCCC(C)C [di-(3-methylbutyl) ether]
767.21

Which mass density value belongs to CCCCCOCCCCC [dipentyl ether] ?
775.29

I would be grateful if you could share the reported mass density for CCCCOC [butyl methyl ether] .
736.43

* * *

Listing: mass density of selected compounds
- test_conditions: 323.15 K; 30000 kPa; Liquid; Vibrating tube method
Number only, in kg/m3; omit the unit.

CCCCCOCCCCC [dipentyl ether]	783.62
CC(C)OC(C)C [diisopropyl ether]	729.58
CCCCOC [butyl methyl ether]	748.07
CCCCOCC [butyl ethyl ether]	752.29
CC(C)CCOCCC(C)C [di-(3-methylbutyl) ether]	776.74

// query mass density value for entry CCCOCCC [dipropyl ether]
750.43

// lookup mass density for CCOC(C)(C)C [2-ethoxy-2-methylpropane]
745.02

Data request, read-out mass density, for COC(C)(C)C [2-methoxy-2-methylpropane]
744.49

* * *

- test_conditions: 283.15 K; 30000 kPa; Liquid; Vibrating tube method
experimental_endpoint: mass density (kg/m3)
Numeric answer only, unit kg/m3 assumed.

Some compounds with recorded mass density:
CCCCOCC	784.72
CCCCCOCCCCC	811.47
CC(C)CCOCCC(C)C	804.45
CCCCOC	781.65

Which measured mass density value corresponds to `COC(C)(C)C` ?
778.47

Can you look up the measured mass density of `CCCOCCC` for me?
783.28

# input compound: `CCOC(C)(C)C` ; wanted: its mass density
778.52

# get_value(readout='mass density', item= `CC(C)OC(C)C` )
763.08

* * *

Overview of recorded mass density for various compounds
- test_conditions: 313.15 K; 35000 kPa; Liquid; Vibrating tube method
Provide the reading as a plain figure in kg/m3.

Please review the following examples before continuing.
CC(C)CCOCCC(C)C	787.12
CCCCCOCCCCC	793.9
CCCCOC	760.7

--- query ---
May I ask what mass density has been recorded for `COC(C)(C)C` ?
757.46

* * *

- test_conditions: 308.15 K; 35000 kPa; Liquid; Vibrating tube method
experimental_endpoint: mass density (kg/m3)
Number in kg/m3, nothing else.

CCCCOCC [butyl ethyl ether]	768.44
CC(C)OC(C)C [diisopropyl ether]	746.63
CCCCCOCCCCC [dipentyl ether]	797.3

Requested read-out: mass density. Entry: CCCCOC [butyl methyl ether]
764.79

* * *

- test_conditions: 283.15 K; 65000 kPa; Liquid; Vibrating tube method
The reader will find reported mass density values listed item by item below.
Use kg/m3 as the unit, but write only the number.

Below are worked cases with known answers.
CCCOCCC [dipropyl ether]	805.87
CCCCOCC [butyl ethyl ether]	807.14
COC(C)(C)C [2-methoxy-2-methylpropane]	802.37
CCCCOC [butyl methyl ether]	804.67

The record that follows has no mass density shown yet.
State the recorded mass density for this entry: CC(C)CCOCCC(C)C [di-(3-methylbutyl) ether]
824.44

* * *

# mass density annotations
- test_conditions: 333.15 K; 20000 kPa; Liquid; Vibrating tube method
Write the value in kg/m3 as a bare number.

Below are worked cases with known answers.
CCCCOCC [butyl ethyl ether]	734.4
CCCCCOCCCCC [dipentyl ether]	768.87
CC(C)OC(C)C [diisopropyl ether]	709.85
CC(C)CCOCCC(C)C [di-(3-methylbutyl) ether]	761.58

# query: mass density of entry CCCCOC [butyl methyl ether]
729.38

* * *

- test_conditions: 313.15 K; 30000 kPa; Liquid; Vibrating tube method
experimental_endpoint: mass density (kg/m3)
Form entry: value (kg/m3) — number only.

Solved entries (count: 2):
CCCCOC [butyl methyl ether]	756.48
CCOC(C)(C)C [2-ethoxy-2-methylpropane]	753.36

Field request: mass density | item: CC(C)CCOCCC(C)C [di-(3-methylbutyl) ether]
783.59

// mass density lookup, key: CC(C)OC(C)C [diisopropyl ether]
737.92
